- targetOfAssay: P-glycoprotein (P-gp, rat Mdr1a) (Rattus norvegicus, UniProt Q6PSM0)
- Sequence (Q6PSM0 1-1272): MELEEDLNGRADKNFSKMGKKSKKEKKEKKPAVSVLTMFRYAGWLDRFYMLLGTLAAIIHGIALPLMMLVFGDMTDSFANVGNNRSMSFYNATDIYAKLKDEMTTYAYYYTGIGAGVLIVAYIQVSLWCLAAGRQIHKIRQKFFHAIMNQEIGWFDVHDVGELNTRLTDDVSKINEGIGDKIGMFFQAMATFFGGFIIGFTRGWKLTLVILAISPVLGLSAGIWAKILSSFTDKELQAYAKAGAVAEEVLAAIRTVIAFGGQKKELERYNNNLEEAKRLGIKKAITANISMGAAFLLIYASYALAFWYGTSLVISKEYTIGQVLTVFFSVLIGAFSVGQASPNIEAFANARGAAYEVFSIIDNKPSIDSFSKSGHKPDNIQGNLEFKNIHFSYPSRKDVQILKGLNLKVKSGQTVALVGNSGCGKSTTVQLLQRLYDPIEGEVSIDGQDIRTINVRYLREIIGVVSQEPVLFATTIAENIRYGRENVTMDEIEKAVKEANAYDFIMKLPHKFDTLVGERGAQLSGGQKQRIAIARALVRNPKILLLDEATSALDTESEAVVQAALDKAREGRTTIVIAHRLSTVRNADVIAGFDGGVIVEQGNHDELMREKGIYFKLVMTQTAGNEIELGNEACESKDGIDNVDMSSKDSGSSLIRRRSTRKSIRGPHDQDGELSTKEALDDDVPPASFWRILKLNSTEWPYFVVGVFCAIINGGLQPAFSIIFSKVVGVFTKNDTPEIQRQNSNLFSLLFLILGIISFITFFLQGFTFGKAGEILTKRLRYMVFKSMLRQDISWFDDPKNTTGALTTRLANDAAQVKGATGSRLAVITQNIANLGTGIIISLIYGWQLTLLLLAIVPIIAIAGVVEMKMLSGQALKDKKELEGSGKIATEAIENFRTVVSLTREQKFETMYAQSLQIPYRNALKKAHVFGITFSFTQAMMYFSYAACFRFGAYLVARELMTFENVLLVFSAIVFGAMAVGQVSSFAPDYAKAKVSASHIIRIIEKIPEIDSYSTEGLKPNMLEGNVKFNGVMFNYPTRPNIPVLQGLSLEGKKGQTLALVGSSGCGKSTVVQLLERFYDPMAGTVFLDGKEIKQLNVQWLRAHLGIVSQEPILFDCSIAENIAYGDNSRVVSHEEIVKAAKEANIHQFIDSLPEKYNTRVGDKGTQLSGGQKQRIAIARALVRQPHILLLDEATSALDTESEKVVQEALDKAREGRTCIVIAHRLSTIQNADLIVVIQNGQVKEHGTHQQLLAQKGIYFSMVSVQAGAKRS
- assay: P-gp transport, experimental BA/AB ratio, rat LLC-Mdr1a
- Type: in vitro ADME
- runConditions: LLC-PK1; rat LLC-Mdrla; 1 μM substrate concentration
- From the text: See Doan et al. “Passive permeability and P-glycoprotein-mediated efflux differentiate central nervous system (CNS) and non-CNS marketed drugs”, J. Pharm. Exper. […] Desirable human BA/AB ratio is less than 2.0. […] See, for example, Desai, et al. Integration of in Silico and in Vitro Tools for Scaffold Optimization during Drug Discovery: Predicting P-glycoprotein Efflux” Mol. Pharmac.
Rule: met for efflux ratio at 1 μM not less than 4, not met for anything less.

Example results:
# compound, class
rows = [
    ("CN(C)c1nc(C(=O)NC(C)(C)c2ccc(C(F)(F)F)c(F)c2)cc(=O)[nH]1", "not met"),
    ("CC(C)[C@@H](NC(=O)c1cc(=O)[nH]c(N(C)C)n1)c1ccc(OC(F)(F)F)cc1", "met"),
    ("CC(C)OCCCOc1nc(C(=O)NC(C)c2ccc(C(F)(F)F)cc2)cc(=O)[nH]1 (stereo not shown)", "met"),
    ("C[C@@H](NC(=O)c1cc(=O)[nH]c(N(C)C)n1)c1ccc(OC(F)(F)F)c(F)c1", "not met"),
    ("C[C@@H](NC(=O)c1cc(=O)[nH]c(N2Cc3ccncc3C2)n1)c1ccc(C(F)(F)F)cc1", "met"),
    ("CNc1nc(C(=O)N[C@@H](c2ccc(C(F)(F)F)cc2)C(C)(C)C)cc(=O)[nH]1", "met"),
    ("CN(C)c1nc(C(=O)N[C@@H](c2ccc(C(F)(F)F)cc2F)C(C)(C)C)cc(=O)[nH]1", "not met"),
    ("CN(C)c1nc(C(=O)N[C@@H](c2ccc(SC(F)(F)F)c(F)c2)C2CC2)cc(=O)[nH]1", "not met"),
]

Exercise: Does the compound "CC(C)[C@@H](NC(=O)c1cc(=O)[nH]c(N(C)C)n1)c1ccc(OC(F)F)c(F)c1" have recorded efflux ratio at 1 μM that is 4 or more?
Solution: met

Exercise: Identify whether the reported efflux ratio at 1 μM of the following compound is 4 or greater: "CN(C)c1nc(C(=O)N[C@@H](c2ccc(OC(F)(F)F)cc2)C2CC2)cc(=O)[nH]1"
Solution: not met

Exercise: Record "CC[C@@H](NC(=O)c1cc(=O)[nH]c(N(C)C)n1)c1ccc(OC(F)(F)F)c(F)c1" ; criterion: efflux ratio at 1 μM no lower than 4. Met?
Solution: met

Exercise: Evaluate "CC(C)[C@@H](NC(=O)c1cc(=O)[nH]c(N)n1)c1ccc(SC(F)(F)F)c(F)c1" : efflux ratio at 1 μM at minimum 4?
Solution: met

Exercise: Please indicate if the recorded efflux ratio at 1 μM for "CN(C)c1nc(C(=O)N[C@@H](c2ccc(C(F)(F)F)cc2)C(C)(C)C)cc(=O)[nH]1" meets or exceeds 4.
Solution: not met

Exercise: Hi team, for "CN(C)c1nc(C(=O)N[C@@H](c2ccc(C3CC3)c(F)c2)C2CC2)cc(=O)[nH]1" , is the recorded efflux ratio at 1 μM at or above 4?
Solution: not met

###

- targetOfAssay: human PDE2A1 (Homo sapiens (Human))
- Sequence (O00408 other isoform, or with tags, fused parts or gaps): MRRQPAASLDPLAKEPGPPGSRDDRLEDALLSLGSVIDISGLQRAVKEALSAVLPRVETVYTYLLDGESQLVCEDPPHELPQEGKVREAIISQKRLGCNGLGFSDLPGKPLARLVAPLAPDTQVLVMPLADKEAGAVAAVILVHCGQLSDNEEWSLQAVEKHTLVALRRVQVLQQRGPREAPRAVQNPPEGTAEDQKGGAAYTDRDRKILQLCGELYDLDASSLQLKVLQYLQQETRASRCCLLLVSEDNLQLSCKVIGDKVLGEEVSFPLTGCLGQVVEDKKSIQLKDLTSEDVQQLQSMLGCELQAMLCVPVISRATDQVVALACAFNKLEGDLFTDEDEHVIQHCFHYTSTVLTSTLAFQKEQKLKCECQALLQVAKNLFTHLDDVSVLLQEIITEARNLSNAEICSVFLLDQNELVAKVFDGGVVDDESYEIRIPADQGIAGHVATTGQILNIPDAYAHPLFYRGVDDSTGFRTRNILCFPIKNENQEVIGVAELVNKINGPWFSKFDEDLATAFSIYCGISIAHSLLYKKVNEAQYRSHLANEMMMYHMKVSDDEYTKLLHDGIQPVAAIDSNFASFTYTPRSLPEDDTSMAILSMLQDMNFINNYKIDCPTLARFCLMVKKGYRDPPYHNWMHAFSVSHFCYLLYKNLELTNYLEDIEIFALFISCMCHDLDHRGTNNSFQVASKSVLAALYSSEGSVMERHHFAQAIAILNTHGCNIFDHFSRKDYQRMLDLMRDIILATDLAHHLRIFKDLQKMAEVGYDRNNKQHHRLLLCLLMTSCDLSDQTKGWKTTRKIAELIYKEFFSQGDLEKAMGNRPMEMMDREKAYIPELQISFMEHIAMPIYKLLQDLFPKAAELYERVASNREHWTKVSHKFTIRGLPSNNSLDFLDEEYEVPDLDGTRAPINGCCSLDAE
- assay: PDE2 IMAP FP inhibition assay, human PDE2A1 (selectivity panel format)
- Assay type: biochemical
- runConditions: Lab A; read-out: Human PDE2 Ki (nM) - Lab A
Some molecules, each annotated with its measured log10 of Ki.
In our notation, the value equals log10 of Ki in nM.

Please review the entries below; each comes with its answer.
# molecule, reportedResult
records = [
    ("O=C(N[C@@H](c1ccc(SC(F)(F)F)cc1)C1CC1)c1cc(=O)[nH]c(N2CCCC2)n1 [Example 27]", -0.68),
    ("C[C@@H](NC(=O)c1cc(=O)[nH]c(N2CCCC2)n1)c1ccc(OC(F)(F)F)cc1 [Example 28]", -0.35),
    ("CN(C)c1nc(C(=O)NC2(c3ccc(C(F)(F)F)c(F)c3)CC2)cc(=O)[nH]1 [Example 94]", -0.05),
    ("O=C(N[C@@H](c1ccc(OC(F)(F)F)c(F)c1)C1CC1)c1cc(=O)[nH]c(N2CCCC2)n1 [Example 25]", -0.43),
    ("O=C(NC1(c2ccc(C(F)(F)F)c(F)c2)CC1)c1cc(=O)[nH]c(N2CCCC2)n1 [Example 1]", -0.32),
    ("CC[C@@H](NC(=O)c1cc(=O)[nH]c(N(C)C)n1)c1ccc(SC(F)(F)F)cc1 [Example 88]", 0.70),
    ("C[C@@H](NC(=O)c1cc(=O)[nH]c(N(C)C)n1)c1ccc(SC(F)(F)F)c(F)c1 [Example 96]", -0.70),
    ("O=C(N[C@@H](c1ccc(C(F)(F)F)cc1)C1CC1)c1cc(=O)[nH]c(N2CCCC2)n1 [Example 26]", -0.47),
]

# log10 of Ki (molecule: CCN(C)c1nc(C(=O)N[C@H](C)c2ccc(C(F)(F)F)cc2)cc(=O)[nH]1 [Example 141] ) is 0.78

Kindly note the recorded log10 of Ki for C[C@@H](NC(=O)c1cc(=O)[nH]c(N2Cc3cncnc3C2)n1)c1ccc(C(F)(F)F)cc1 [Example 161] , which is 0.70

In plain terms, CC[C@@H](NC(=O)c1cc(=O)[nH]c(N(C)C)n1)c1ccc(SC(F)(F)F)c(F)c1 [Example 98] has a documented log10 of Ki of -0.64
